// data source = patent US10800792B2

# target or test system: unphosphorylated-BTK kinase domain (UP-BTK), GST-tagged human BTK (389-659aa) (Homo sapiens (Human), UniProt Q06187)
# Sequence (Q06187 389-659): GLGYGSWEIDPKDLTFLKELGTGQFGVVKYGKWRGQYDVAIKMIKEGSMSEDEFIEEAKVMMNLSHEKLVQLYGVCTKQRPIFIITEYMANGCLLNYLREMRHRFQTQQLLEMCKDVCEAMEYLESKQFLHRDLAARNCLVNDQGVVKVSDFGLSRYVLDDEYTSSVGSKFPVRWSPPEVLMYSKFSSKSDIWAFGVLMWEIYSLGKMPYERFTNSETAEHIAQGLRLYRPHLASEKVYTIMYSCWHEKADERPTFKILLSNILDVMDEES
# protocol details: BTK kinase Lanthascreen binding assay
# run conditions: pIC50 = negative log of the IC50 in molar; 60 minutes incubation, 50 nM Tracer 236

- molecule: "C/C=C(\\Cl)C(=O)N1CCC[C@@H](NC(=O)c2sc3nccc4c3c2NC(=O)N4c2ccc(Oc3ccccc3)cc2C)C1 [Example 277]"
  BTK_I_binding pIC50: 6.2
- molecule: "C=CC(=O)N1CC[C@@H](NC(=O)c2sc3nccc4c3c2NC(=O)N4c2ccc(Oc3ccccc3)cc2C)C1 (single isomer, unassigned) [Example 5]"
  BTK_I_binding pIC50: 8.1
- molecule: "C=CC(=O)N1CCC[C@@H](NC(=O)c2sc3nccc4c3c2NC(=O)N4c2ccc(S(F)(F)(F)(F)F)cc2C)C1 [Example 83]"
  BTK_I_binding pIC50: 6.8
- molecule: "Cc1cc(Oc2c(F)cccc2F)ccc1N1C(=O)Nc2c(C(=O)N[C@@H]3CCCN(C)C3)sc3nccc1c23 [Example 52]"
  BTK_I_binding pIC50: 7.0
- molecule: "CO[C@H]1CNC[C@@H]1NC(=O)c1sc2nccc3c2c1NC(=O)N3c1ccc(Oc2ccccc2)cc1C [Example 245]"
  BTK_I_binding pIC50: 6.6
- molecule: "COCC(=O)N1CCC[C@@H](NC(=O)c2sc3nccc4c3c2NC(=O)N4c2ccc(Oc3ccccc3)cc2C)C1 [Example 95]"
  BTK_I_binding pIC50: 7.4
- molecule: "COCC(C)(C)C(=O)N1CCC[C@@H](NC(=O)c2sc3nccc4c3c2NC(=O)N4c2ccc(Oc3ccccc3)cc2C)C1 [Example 188]"
  BTK_I_binding pIC50: 6.7

###

# target or test system: unphosphorylated-BTK kinase domain (UP-BTK), GST-tagged human BTK (389-659aa) (Homo sapiens (Human))
# protocol details: BTK kinase Lanthascreen binding assay
# run conditions: Lanthascreen tracer competition, 60 minutes incubation; pIC50 = negative log of the IC50 in molar
measure: BTK_I_binding pIC50

- molecule: "C=CC(=O)N1CCC[C@@H](NC(=O)c2sc3nccc4c3c2NC(=O)N4c2cccc(CC(C)C)c2)C1 [Example 689]"
  measure: "BTK_I_binding pIC50"
  relational operator: "="
  reported measurement: 7.6
- molecule: "C=CC(=O)N1CCC[C@@H](NC(=O)c2sc3nccc4c3c2NC(=O)N4c2cccc(-c3ccccc3)n2)C1 [Example 604]"
  measure: "BTK_I_binding pIC50"
  relational operator: "="
  reported measurement: 6.3
- molecule: "CN1CCC[C@@H](NC(=O)c2sc3nccc4c3c2NC(=O)N4c2cccc(-c3cccc(F)c3F)c2)C1 [Example 710]"
  measure: "BTK_I_binding pIC50"
  relational operator: "="
  reported measurement: 7.4
- molecule: "C=CC(=O)N1CCC[C@H](NC(=O)c2sc3nccc4c3c2NC(=O)N4c2ccc(Oc3ccccc3)cc2C)C1 [Example 863]"
  measure: "BTK_I_binding pIC50"
  relational operator: "="
  reported measurement: 7.3
- molecule: "C=CC(=O)N1CCC[C@@H](NC(=O)c2sc3nccc4c3c2NC(=O)N4c2cc(-c3cccc(F)c3F)ccc2C)C1 [Example 842]"
  measure: "BTK_I_binding pIC50"
  relational operator: "="
  reported measurement: 7.7
- molecule: "C=CS(=O)(=O)N1CC[C@@H](NC(=O)c2sc3nccc4c3c2NC(=O)N4c2ccc(Oc3ccccc3)cc2C)C1 (single isomer, unassigned) [Example 834]"
  measure: "BTK_I_binding pIC50"
  relational operator: "="
  reported measurement: 8.0
- molecule: "CC(=O)N1CCC[C@@H](NC(=O)c2sc3nccc4c3c2NC(=O)N4c2ccc(Oc3cccnn3)cc2C)C1 [Example 810]"
  measure: "BTK_I_binding pIC50"
  relational operator: "<"
  reported measurement: 6
- molecule: "C=CC(=O)N1CCC[C@@H](NC(=O)c2sc3nccc4c3c2NC(=O)N4c2cccc(-c3ccncc3)c2)C1 [Example 631]"
  measure: "BTK_I_binding pIC50"
  relational operator: "="
  reported measurement: 5.9
- molecule: "C=CC(=O)N1CCC[C@@H](NC(=O)c2sc3nccc4c3c2NC(=O)N4c2ccc(OC3CCC3)cc2C)C1 (single isomer, unassigned) [Example 609]"
  measure: "BTK_I_binding pIC50"
  relational operator: "="
  reported measurement: 6.3
- molecule: "C=CC(=O)N1CCC[C@@H](NC(=O)c2sc3nccc4c3c2NC(=O)N4c2cnc(Oc3ccccc3)nc2C)C1 (single isomer, unassigned) [Example 746]"
  measure: "BTK_I_binding pIC50"
  relational operator: "="
  reported measurement: 8.1
- molecule: "Cc1cc(Oc2ccccc2)ccc1N1C(=O)Nc2c(C(=O)N[C@@H]3CCN(C#N)C3)sc3nccc1c23 [Example 837]"
  measure: "BTK_I_binding pIC50"
  relational operator: "="
  reported measurement: 7.9
- molecule: "Cc1cc(OC(C)C)ccc1N1C(=O)Nc2c(C(=O)N[C@@H]3CCCN(C(=O)/C=C/CN4C[C@@H]5OCCO[C@@H]5C4)C3)sc3nccc1c23 [Example 608]"
  measure: "BTK_I_binding pIC50"
  relational operator: "="
  reported measurement: 6.2
- molecule: "O=C(N[C@@H]1CCCNC1)c1sc2nccc3c2c1NC(=O)N3c1ccnc(C2CCC2)c1 [Example 634]"
  measure: "BTK_I_binding pIC50"
  relational operator: "="
  reported measurement: 5.8

###

Each entry below carries its recorded BTK_I_binding pIC50.
# target or test system: unphosphorylated-BTK kinase domain (UP-BTK), GST-tagged human BTK (389-659aa) (Homo sapiens (Human))
# protocol details: BTK kinase Lanthascreen binding assay
# run conditions: pIC50 = negative log of the IC50 in molar; 60 minutes incubation, 50 nM Tracer 236

- compound smiles: "Cc1cc(Oc2ccccc2)ccc1N1C(=O)Nc2c(C(=O)N[C@@H]3C[C@H](F)CN(C)C3)sc3nccc1c23"
  BTK_I_binding pIC50: 6.8
- compound smiles: "Cc1cc(Oc2ccccc2)ccc1N1C(=O)Nc2c(C(=O)N[C@@H]3CCNC3)sc3nccc1c23"
  BTK_I_binding pIC50: 7.1
- compound smiles: "Cc1ccccc1Oc1ccc(N2C(=O)Nc3c(C(=O)N[C@@H]4CCCN(C)C4)sc4nccc2c34)c(C)c1"
  BTK_I_binding pIC50: 6.9
- compound smiles: "Cc1cc(Oc2ccccc2)ccc1N1C(=O)Nc2c(C(=O)N[C@@H]3CCCN(C(=O)[C@H]4CCOC4)C3)sc3nccc1c23"
  BTK_I_binding pIC50: 7.1

###

# target or test system: unphosphorylated-BTK kinase domain (UP-BTK), GST-tagged human BTK (389-659aa) (Homo sapiens (Human), UniProt Q06187)
# protocol details: BTK kinase Lanthascreen binding assay
# run conditions: Lanthascreen tracer competition, 60 minutes incubation; pIC50 = negative log of the IC50 in molar
Each entry below carries its recorded BTK_I_binding pIC50.

- compound: "Cc1cc(Oc2ccccc2)ccc1N1C(=O)Nc2c(C(=O)N[C@@H]3CCN(C(=O)/C(C#N)=C/C4CC4)C3)sc3nccc1c23 [Example 844]"
  BTK_I_binding pIC50: 7.6
- compound: "CC(=O)N1CC[C@@H](NC(=O)c2sc3nccc4c3c2NC(=O)N4c2ccc(Oc3ccccc3)cc2)C1 [Example 888]"
  BTK_I_binding pIC50: 7.0
- compound: "Cc1cc(Oc2ccccc2)ccc1N1C(=O)Nc2c(C(=O)NC3CCCN(C(=O)/C(C#N)=C/C4CC4)C3)sc3nccc1c23 (stereo not shown) [Example 877]"
  BTK_I_binding pIC50: 7.1
- compound: "C=CC(=O)N1CCC[C@@H](NC(=O)c2sc3nccc4c3c2NC(=O)N4c2ccc(OC3CCC3)nc2C)C1 [Example 704]"
  BTK_I_binding pIC50: 6.6

###

# target or test system: unphosphorylated-BTK kinase domain (UP-BTK), GST-tagged human BTK (389-659aa) (Homo sapiens (Human))
# protocol details: BTK kinase Lanthascreen binding assay
# run conditions: unphosphorylated-BTK kinase domain, 50 nM Tracer 236, 60 minutes; pIC50 = negative log of the IC50 in molar

- molecule: "Cc1cc(Oc2ccccc2)ccc1N1C(=O)Nc2c(C(=O)N(C)[C@@H]3CCNC3)sc3nccc1c23"
  BTK_I_binding pIC50: 5.5
- molecule: "C=CC(=O)N1CCC[C@@H](NC(=O)c2sc3nccc4c3c2NC(=O)N4c2cccc(OC(F)(F)F)c2)C1"
  BTK_I_binding pIC50: 7.4
- molecule: "Cc1cc(Oc2ccccc2)cc(C)c1N1C(=O)Nc2c(C(=O)N[C@@H]3CCCN(C)C3)sc3nccc1c23"
  BTK_I_binding pIC50: 5.8
- molecule: "C=CC(=O)N1CCC[C@@H](NC(=O)c2sc3nccc4c3c2NC(=O)N4C(C)C)C1"
  BTK_I_binding pIC50: 5.1
- molecule: "C=CS(=O)(=O)N1CCC[C@@H](NC(=O)c2sc3nccc4c3c2NC(=O)N4c2ccc(Oc3ccccc3)cc2C)C1 (single isomer, unassigned) [Example 530]"
  BTK_I_binding pIC50: 8.0
- molecule: "Cc1cc(Oc2ccccc2)ccc1N1C(=O)Nc2c(C(=O)N[C@@H]3CCCN(C(=O)/C(F)=C/CN)C3)sc3nccc1c23"
  BTK_I_binding pIC50: 7.2
- molecule: "O=C(N[C@@H]1CCCNC1)c1sc2nccc3c2c1NC(=O)N3c1cccc(Cl)c1"
  BTK_I_binding pIC50: 5.4
